ILS at 100 mg/kg reference
System: P388
Assay: Compound was studied in P388 test system for the antitumor activity expressed as percent maximum life span of animals at a dose of 100 mg/kg
Type: functional
Conditions: Mus musculus
recorded endpoint: ILS at 100 mg/kg (%)

{"mol smiles": "CC(C)=C(C)OS(=O)(=O)C(F)(F)F", "recorded endpoint": "ILS at 100 mg/kg", "measured": 14}
{"mol smiles": "C[Si](C)(C)OC=C1CCCCC1", "recorded endpoint": "ILS at 100 mg/kg", "measured": 22}
{"mol smiles": "O=S(=O)(OC(=C(c1ccccc1)c1ccccc1)c1ccccc1)C(F)(F)F", "recorded endpoint": "ILS at 100 mg/kg", "measured": 16}
{"mol smiles": "O=S(=O)(O/C1=C/CCCCCC1)C(F)(F)F", "recorded endpoint": "ILS at 100 mg/kg", "measured": 13}
{"mol smiles": "C/C(=C\\O[Si](C)(C)C)c1ccccc1", "recorded endpoint": "ILS at 100 mg/kg", "measured": 8}
